test system: SK-MEL-5; assay: NCI tumour cell line growth inhibition, 48 h
Activity calls are given as the source filed them. No stated cut-off is given here; in the data, active = GI50 up to about 1.1 µM and inactive = higher.
Classes used: true (1) for active, false (0) for inactive

compound: COC(=O)/C=C(\S/C(=C(/c1ccc(OC)cc1)n1cc(C(=O)OC)c(C(=O)OC)n1)c1ccc(OC)cc1)C(=O)OC
class name: false (0)
//
compound: COc1ccc(NC(C(N)=O)c2cc3cc(Br)ccc3nc2Cl)cc1 (stereo not given)
class name: false (0)
//
compound: CN(C)CCNC(=O)c1cccc2c(=O)c3ccccc3oc12
class name: false (0)
//
compound: CN1C(=O)CC2(C)c3cc(O)cc(Br)c3N(C)C12 (stereo not given)
class name: false (0)
//
compound: CC(C)c1c(O)c(O)c2c(c1O)C(=O)C(O)=C1C(C)(C)CCC[C@@]12C
class name: false (0)
//
compound: CCCCCCCCC(=O)NCCCNCCCNC(=O)CCCCCCCC
class name: false (0)
//
compound: O=[N+]([O-])c1sc2ccc(Cl)cc2c1Nc1ccc(Cl)cc1
class name: false (0)
//
compound: Oc1cc(-c2ccc(F)cc2)nc2ncc(Cl)cc12
class name: false (0)
//
compound: C#C[C@]1(O)CCC2C3CCc4cc(Oc5nc(F)nc(-n6c(C)nc7cc8ccccc8cc76)n5)ccc4C3CCC21C (stereo not given in full)
class name: false (0)
//
compound: Nc1ccccc1SCc1csc(-c2ccc(Cl)cc2)n1
class name: false (0)
//
compound: COc1cc(Oc2nc3ccc(C(F)(F)F)cc3nc2-c2ccccc2)cc(OC)c1OC
class name: false (0)
//
compound: O=C(/C=C/c1cccc2ccccc12)c1ccccc1
class name: false (0)
//
compound: N[C@H]1CCN(c2c(F)cc3c(=O)c(C(=O)O)cn4c3c2Oc2cc3c(ccc5ccccc53)cc2-4)C1
class name: false (0)
//
compound: Cc1nc2cccc(F)c2c(=O)n1-c1nnc(C2CC2)s1
class name: false (0)
//
compound: CC#CC#C/C(=C/C=CC(=O)OC)SC
class name: false (0)
//
compound: COc1cc2c(cc1OC)[C@H](C)N1CCc3cc(OC)c(OC)cc3[C@@H]1C2
class name: false (0)
//
compound: CN(C)CCCNc1ccc2c(=O)n(CCN(C)C)c(=O)n3c4ccccc4c(=O)c1c23
class name: true (1)
//
compound: C/C=C(\N=C=S)C(=O)OC1C(COC(C)=O)OC([C@]2(O)CC(=O)C(N)=C(C(=O)O)C2=O)C(O)C1OC1CC(OC)C(O)([C@@H](C)OC(=O)[C@@H](C)CC)C(C)O1 (stereo not given in full)
class name: false (0)
//
compound: Nc1ccc2c(SCc3ccc([N+](=O)[O-])cc3)c3ccccc3nc2c1
class name: false (0)
//
compound: CCCCCC(/C=N/N)C(O)(C(F)(F)F)C(F)(F)F (stereo not given)
class name: false (0)

* * *

system: MDA-N; experiment: NCI tumour cell line growth inhibition, 48 h
Active and inactive are the calls of the source. Cut-off read from the data, not from the text of the source: active = GI50 up to about 1.1 µM and inactive = higher. Where a SMILES comes first, the peptide text is derived from it. [ ]: non-standard residue; d: D form. The star is where a group is joined. ξ: configuration not given here. Propanoyl(3-(4-MeO-Ph)) = COc1ccc(CCC(=O)*)cc1; Thr(3ξ) = CC(O)[C@H](N)C(=O)O; dNMeL = CN[C@H](CC(C)C)C(=O)O; OBn = c1ccc(CO*)cc1; ξLac = CC(O)C(=O)O
Classes used: active, inactive

compound: COc1ccc(CCC(=O)OC(C)[C@H](NC(=O)[C@@H](CC(C)C)N(C)C(=O)[C@@H]2CCCN2C(=O)C(C)O)C(=O)OCc2ccccc2)cc1 (stereo partly drawn) (H-[ξLac]P[dNMeL][Thr(3ξ)](Propanoyl(3-(4-MeO-Ph)))-OBn)
class name: inactive
//
compound: O=C1Cc2c([nH]c3ccc([N+](=O)[O-])cc23)-c2ccccc2N1
class name: active
//
compound: O=C1CN(c2cccc(Cl)c2)C(=O)CN1NCNN1CC(=O)N(c2cccc(Cl)c2)CC1=O
class name: inactive
//
compound: COc1cc(/C=C2\N=C(c3ccccc3)N(c3nc4ccc(Sc5ccccc5)cc4[nH]3)C2=O)ccc1O
class name: inactive
//
compound: CCOC(=O)C(Cc1ccc(N(CCCl)CCCl)cc1)NC(=O)CCCN1C(=O)CN=C(c2ccccc2)c2cc(Cl)ccc21 (stereo not drawn)
class name: inactive
//
compound: Cn1c2ccc3cc2c(=S)c2cc(ccc21)OCCOCCOCCOCCOCCO3
class name: inactive
//
compound: Cc1cccc2c(N)c3cccc(C(=O)NCCN4CCOCC4)c3nc12
class name: active
//
compound: c1ccc2c(CCNC3=NCCO3)cccc2c1
class name: inactive
